# target.under.test: Patatin-like phospholipase domain-containing protein 6 (Mus musculus)
# Sequence (Q3TRM4 whole entry, the tested form may be a part): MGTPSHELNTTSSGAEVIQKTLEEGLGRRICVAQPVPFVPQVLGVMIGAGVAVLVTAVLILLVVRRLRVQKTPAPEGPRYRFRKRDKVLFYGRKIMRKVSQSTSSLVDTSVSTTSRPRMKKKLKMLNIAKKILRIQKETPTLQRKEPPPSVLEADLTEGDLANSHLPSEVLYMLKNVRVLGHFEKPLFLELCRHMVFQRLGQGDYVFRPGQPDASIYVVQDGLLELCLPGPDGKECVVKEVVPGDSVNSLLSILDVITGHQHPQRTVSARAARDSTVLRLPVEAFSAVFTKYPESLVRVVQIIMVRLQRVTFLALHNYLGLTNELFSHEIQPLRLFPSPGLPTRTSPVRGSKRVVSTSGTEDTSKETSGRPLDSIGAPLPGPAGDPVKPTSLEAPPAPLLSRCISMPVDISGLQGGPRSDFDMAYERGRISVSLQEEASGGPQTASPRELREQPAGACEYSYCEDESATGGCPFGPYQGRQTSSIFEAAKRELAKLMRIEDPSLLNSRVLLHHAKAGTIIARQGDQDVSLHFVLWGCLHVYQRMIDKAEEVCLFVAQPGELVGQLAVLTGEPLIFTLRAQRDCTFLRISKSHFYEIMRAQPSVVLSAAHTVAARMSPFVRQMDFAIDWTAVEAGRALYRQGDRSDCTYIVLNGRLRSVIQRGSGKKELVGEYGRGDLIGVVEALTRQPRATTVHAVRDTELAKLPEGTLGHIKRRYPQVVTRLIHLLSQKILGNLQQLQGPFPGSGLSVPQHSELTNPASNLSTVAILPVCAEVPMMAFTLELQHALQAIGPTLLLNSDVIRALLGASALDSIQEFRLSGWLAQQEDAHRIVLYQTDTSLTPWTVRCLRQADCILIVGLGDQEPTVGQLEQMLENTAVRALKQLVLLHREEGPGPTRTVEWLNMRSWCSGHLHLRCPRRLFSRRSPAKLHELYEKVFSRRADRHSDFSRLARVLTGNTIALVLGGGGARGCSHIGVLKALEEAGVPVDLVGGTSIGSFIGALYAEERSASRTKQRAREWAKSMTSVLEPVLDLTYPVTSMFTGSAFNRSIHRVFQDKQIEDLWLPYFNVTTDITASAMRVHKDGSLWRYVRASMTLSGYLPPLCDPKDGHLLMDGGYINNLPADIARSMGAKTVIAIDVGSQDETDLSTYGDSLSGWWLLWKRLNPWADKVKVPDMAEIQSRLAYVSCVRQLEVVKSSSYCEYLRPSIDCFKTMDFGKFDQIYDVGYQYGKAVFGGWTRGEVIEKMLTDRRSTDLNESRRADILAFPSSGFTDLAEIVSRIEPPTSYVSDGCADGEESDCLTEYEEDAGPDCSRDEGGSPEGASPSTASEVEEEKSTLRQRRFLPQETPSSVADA
# protocol.text: Inhibition of NTE in mouse brain membrane
quantity.name: pIC50
Answers are plain numbers, as −log10 of the molar value.

O=C(Oc1ccc([N+](=O)[O-])cc1)N1CCN(Cc2ccc3ccccc3c2)CC1 | 5.96
COc1cc(OCc2ccccc2)ccc1CN1CCN(C(=O)Oc2ccc([N+](=O)[O-])cc2)CC1 | 6.38
O=C(Oc1ccc([N+](=O)[O-])cc1)N1CCN(Cc2ccc3ccccc3n2)CC1 | 6.04

Incoming: Recorded pIC50 of Cc1ccc(Oc2cccc(CN3CCN(C(=O)Oc4ccc([N+](=O)[O-])cc4)CC3)c2)cc1 , please.
Outgoing: 5.52

----------
# target.under.test: Fatty-acid amide hydrolase 1 (Mus musculus)
# Sequence (O08914 whole entry): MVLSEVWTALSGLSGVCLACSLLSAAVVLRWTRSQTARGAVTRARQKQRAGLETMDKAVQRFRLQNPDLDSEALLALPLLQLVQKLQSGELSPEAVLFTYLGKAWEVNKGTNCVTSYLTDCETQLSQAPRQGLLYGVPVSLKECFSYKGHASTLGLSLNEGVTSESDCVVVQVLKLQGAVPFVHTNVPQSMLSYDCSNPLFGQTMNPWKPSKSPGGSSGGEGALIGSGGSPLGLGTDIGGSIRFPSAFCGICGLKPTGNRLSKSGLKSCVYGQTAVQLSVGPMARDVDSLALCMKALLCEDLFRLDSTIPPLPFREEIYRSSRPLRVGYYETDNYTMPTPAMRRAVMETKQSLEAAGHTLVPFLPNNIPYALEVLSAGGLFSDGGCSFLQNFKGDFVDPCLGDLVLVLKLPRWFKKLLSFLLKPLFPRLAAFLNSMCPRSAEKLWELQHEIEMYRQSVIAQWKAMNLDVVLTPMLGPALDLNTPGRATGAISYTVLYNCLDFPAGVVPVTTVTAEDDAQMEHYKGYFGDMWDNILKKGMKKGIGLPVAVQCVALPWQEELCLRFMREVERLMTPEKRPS
# protocol.text: Inhibition of FAAH in mouse brain membrane
quantity.name: pIC50
One number for each entry, as −log10 of the molar value.

O=C(Oc1ccc([N+](=O)[O-])cc1)N1CCC(C(O)(c2ccc3ccccc3c2)c2ccc3ccccc3c2)CC1 | 5.33
O=C(Oc1ccc([N+](=O)[O-])cc1)N1CCN(Cc2ccc3ccccc3c2)CC1 | 6.42
Cc1ccc(Oc2cccc(CN3CCN(C(=O)Oc4ccc([N+](=O)[O-])cc4)CC3)c2)cc1 | 7.40
O=C(Oc1ccc([N+](=O)[O-])cc1)N1CCN(Cc2cccc(Oc3ccccn3)c2)CC1 | 7.40
O=C(Oc1ccc([N+](=O)[O-])cc1)N1CCN(Cc2cc(-c3ccccc3)cs2)CC1 | 6.55
O=C(Oc1ccc([N+](=O)[O-])cc1)N1CCC(C(O)(c2ccc(Cl)cc2)c2ccc(Cl)cc2)CC1 | 5.47
O=C(Oc1ccc([N+](=O)[O-])cc1)N1CCN(C(c2ccc(F)cc2)c2ccc(F)cc2)CC1 | 5.27
COc1ccc(CN2CCN(C(=O)Oc3ccc([N+](=O)[O-])cc3)CC2)cc1 | 5.98
O=C(Oc1ccc([N+](=O)[O-])cc1)N1CCC(C(O)(c2ccccc2)c2ccccc2)CC1 | 5.36
CN(C)c1ccc(C(O)(c2ccc(N(C)C)cc2)C2CCN(C(=O)Oc3ccc([N+](=O)[O-])cc3)CC2)cc1 | 4.98

Provide each entry's pIC50 from the list below.
1. O=C(Oc1ccc([N+](=O)[O-])cc1)N1CCN(Cc2ccc(-c3ccccc3)cc2)CC1
2. O=C(Oc1ccc([N+](=O)[O-])cc1)N1CCN(Cc2cccc(Oc3ccccc3)c2)CC1
3. COc1ccc(C(c2ccc(OC)cc2)C2CCN(C(=O)Oc3ccc([N+](=O)[O-])cc3)CC2)cc1
4. O=C(Oc1ccc([N+](=O)[O-])cc1)N1CCN(Cc2ccc(-c3ccccc3OC(F)(F)F)o2)CC1

Outgoing:
5.34
7.89
4.40
8.30

// for each compound below, give its pIC50
1. O=C(Oc1ccc([N+](=O)[O-])cc1)N1CCN(Cc2cccc(Oc3cccc(C(F)(F)F)c3)c2)CC1
2. O=C(Oc1ccc([N+](=O)[O-])cc1)N1CCN(Cc2cc(Br)ccc2O)CC1

Outgoing:
[8.30, 6.14]

----------
# Organism: Mus musculus
# protocol.text: Selectivity ratio of IC50 for mouse FAAH to IC50 for mouse MAGL
quantity.name: Ratio IC50
Numbers only.

Reference set, count: 3
COc1ccc(C(c2ccc(OC)cc2)C2CCN(C(=O)Oc3ccc([N+](=O)[O-])cc3)CC2)cc1 | 549
O=C(Oc1ccc([N+](=O)[O-])cc1)N1CCC(C(O)(c2ccccc2)c2ccccc2)CC1 | 6
COc1cccc(C(O)(c2cccc(OC)c2)C2CCN(C(=O)Oc3ccc([N+](=O)[O-])cc3)CC2)c1 | 10

Please give Ratio IC50, item by item, for the list that follows.
1. O=C(Oc1ccc([N+](=O)[O-])cc1)N1CCN(C(c2ccc(F)cc2)c2ccc(F)cc2)CC1
2. O=C(Oc1ccc([N+](=O)[O-])cc1)N1CCC2(CC1)OC2(c1ccccc1)c1ccccc1
3. CN(C)c1ccc(C(O)(c2ccc(N(C)C)cc2)C2CCN(C(=O)Oc3ccc([N+](=O)[O-])cc3)CC2)cc1
4. O=C(Oc1ccc([N+](=O)[O-])cc1)N1CCN(C2c3ccccc3Oc3ccccc32)CC1
5. O=C(Oc1ccc([N+](=O)[O-])cc1)N1CCC(C(O)(c2ccc3ccccc3c2)c2ccc3ccccc3c2)CC1

Outgoing:
[27, 29, 5, 2, 6]

Working through the 3 molecules below one at a time, give Ratio IC50 for each.
1. O=C(Oc1ccc([N+](=O)[O-])cc1)N1CCC(=C(c2ccccc2)c2ccccc2)CC1
2. O=C(Oc1ccc([N+](=O)[O-])cc1)N1CCC(C(O)(c2ccc(Cl)cc2)c2ccc(Cl)cc2)CC1
3. COc1ccc(C(O)(c2ccc(OC)cc2)C2CCN(C(=O)Oc3ccc([N+](=O)[O-])cc3)CC2)cc1

Outgoing:
1. 3
2. 3
3. 68

----------
# target.under.test: Monoacylglycerol lipase ABHD6 (Mus musculus)
# Sequence (Q8R2Y0 whole entry): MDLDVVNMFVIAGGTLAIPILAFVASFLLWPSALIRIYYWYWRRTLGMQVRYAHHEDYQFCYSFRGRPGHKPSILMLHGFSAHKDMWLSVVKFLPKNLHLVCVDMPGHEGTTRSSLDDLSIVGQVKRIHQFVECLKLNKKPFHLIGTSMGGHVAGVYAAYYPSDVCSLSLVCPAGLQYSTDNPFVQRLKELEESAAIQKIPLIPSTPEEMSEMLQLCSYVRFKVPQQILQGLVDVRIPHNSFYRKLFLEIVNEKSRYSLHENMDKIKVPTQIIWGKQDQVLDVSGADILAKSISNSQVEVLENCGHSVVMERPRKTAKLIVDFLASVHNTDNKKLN
# protocol.text: Inhibition of ABHD6 in mouse brain membrane
quantity.name: pIC50
Numbers only, as −log10 of the molar value.

Example entries and their recorded answers appear below.
O=C(Oc1ccc([N+](=O)[O-])cc1)N1CCN(C(c2ccc(F)cc2)c2ccc(F)cc2)CC1 | 6.05
COc1ccc(Oc2cccc(CN3CCN(C(=O)Oc4ccc([N+](=O)[O-])cc4)CC3)c2)cc1 | 6.34

Now consider the entry below.
Incoming: API: value(readout=pIC50, system=Monoacylglycerol lipase ABHD6 (Mus musculus)) for record O=C(Oc1ccc([N+](=O)[O-])cc1)N1CCN(Cc2cc(-c3ccccc3)cs2)CC1
Outgoing: 6.00

----------
Could you please report measured inhibition for the items listed next?
# target.under.test: Patatin-like phospholipase domain-containing protein 6 (Mus musculus)
# protocol.text: Inhibition of NTE in mouse brain membrane at 100 uM
# Assay type: cell membranes
One number for each entry, in %.

Some molecules with recorded inhibition:
O=C(Oc1ccc([N+](=O)[O-])cc1)N1CCN(Cc2cccc(Oc3cccc(C(F)(F)F)c3)c2)CC1 | 57
Cc1ccc(Oc2cccc(CN3CCN(C(=O)Oc4ccc([N+](=O)[O-])cc4)CC3)c2)cc1 | 70
O=C(Oc1ccc([N+](=O)[O-])cc1)N1CCN(Cc2cccc(Oc3ccccc3)c2)CC1 | 50
O=C(Oc1ccc([N+](=O)[O-])cc1)N1CCN(Cc2cccc(Oc3cc(Cl)cc(Cl)c3)c2)CC1 | 0

# batch: return inhibition for each of the 2 molecules below
1. O=C(Oc1ccc([N+](=O)[O-])cc1)N1CCN(Cc2cc(Br)ccc2O)CC1
2. O=C(Oc1ccc([N+](=O)[O-])cc1)N1CCN(Cc2cccc(Oc3ccccn3)c2)CC1

Outgoing:
1. 73
2. 73

# map each molecule to its inhibition
1. COc1ccc(Oc2cccc(CN3CCN(C(=O)Oc4ccc([N+](=O)[O-])cc4)CC3)c2)cc1
2. O=C(Oc1ccc([N+](=O)[O-])cc1)N1CCN(Cc2ccc(-c3ccccc3OC(F)(F)F)o2)CC1

Outgoing:
1. 60
2. 81

----------
# target.under.test: Monoglyceride lipase (Mus musculus, UniProt O35678)
# Sequence (O35678 whole entry): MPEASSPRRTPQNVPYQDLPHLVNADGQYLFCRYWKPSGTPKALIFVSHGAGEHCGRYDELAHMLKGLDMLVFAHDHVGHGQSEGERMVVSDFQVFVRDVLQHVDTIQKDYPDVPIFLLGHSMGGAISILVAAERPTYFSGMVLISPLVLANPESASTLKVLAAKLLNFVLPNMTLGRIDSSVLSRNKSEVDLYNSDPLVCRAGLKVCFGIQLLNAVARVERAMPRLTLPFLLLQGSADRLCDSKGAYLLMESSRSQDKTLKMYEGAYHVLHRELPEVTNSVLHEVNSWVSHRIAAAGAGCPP
# protocol.text: Inhibition of MAGL in mouse brain membrane
pIC50: −log10 of the molar value.
# if value of pIC50 reaches 7, tag label 1; if it stays below, tag label 0

Answered examples (3):
CN(CCC(c1ccccc1)c1ccccc1)C(=O)Oc1ccc([N+](=O)[O-])cc1 | label 0
CN(C(=O)Oc1ccc([N+](=O)[O-])cc1)C(c1ccccc1)c1ccccc1 | label 0
COc1ccc(C(O)(c2ccc(OC)cc2)C2CCN(C(=O)Oc3ccc([N+](=O)[O-])cc3)C2)cc1 (stereo not given) | label 0

Incoming: Hi team, for O=C(Oc1ccc([N+](=O)[O-])cc1)N1CCN(Cc2ccc(-c3ccccc3)cc2)CC1 , is the recorded pIC50 at or above 7?
Outgoing: label 1

Incoming: In plain terms: is recorded pIC50 at least 7 for O=C(Oc1ccc([N+](=O)[O-])cc1)N1CCN(Cc2cccc(Oc3ccccn3)c2)CC1 ?
Outgoing: label 1

Incoming: Item Cc1ccc(Oc2cccc(CN3CCN(C(=O)Oc4ccc([N+](=O)[O-])cc4)CC3)c2)cc1 with pIC50 of 7 or above?
Outgoing: label 0

Incoming: Exam item: decide whether the reported pIC50 for O=C(Oc1ccc([N+](=O)[O-])cc1)N1CCN(Cc2cccc(Oc3cc(Cl)cc(Cl)c3)c2)CC1 is at least 7.
Outgoing: label 0

Incoming: Quick check: does O=C(Oc1ccc([N+](=O)[O-])cc1)N1CCN(C(c2ccc(F)cc2)c2ccc(F)cc2)CC1 have pIC50 greater than or equal to 7?
Outgoing: label 0

Incoming: Reported pIC50 reaches at least 7 for O=C(Oc1ccc([N+](=O)[O-])cc1)N1CCN(Cc2ccccc2)CC1 ?
Outgoing: label 0

Incoming: Dear colleague, could you confirm whether COc1ccc(C(O)(c2ccc(OC)c(OC)c2)C2CCN(C(=O)Oc3ccc([N+](=O)[O-])cc3)CC2)cc1OC has pIC50 at or above 7?
Outgoing: label 0

Incoming: Could you verify whether the entry O=C(Oc1ccc([N+](=O)[O-])cc1)N1CCC2(CC1)OC2(c1ccccc1)c1ccccc1 shows pIC50 of no less than 7?
Outgoing: label 0

Reference source: ChEMBL document CHEMBL1156908
